B1: Osa-1-4 twister ribozyme (parent)
chain: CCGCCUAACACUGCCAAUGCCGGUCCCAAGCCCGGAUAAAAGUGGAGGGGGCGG

# Variants of: B1
# assayNotes: self-cleavage, relative activity (ratio to wild type); higher = more cleavage; co-transcriptional
metricName: self-cleavage
The answer should be a number; do not append a unit.

input: // lookup self-cleavage for C11A G48A
output: 0.05

input: // lookup self-cleavage for C33G U18C
output: 0.08

input: // lookup self-cleavage for A28C U18G
output: 1.01

input: // lookup self-cleavage for A29U C25U
output: 0.1

input: // lookup self-cleavage for G53A U43A
output: 0.64

input: // lookup self-cleavage for G23C G54U
output: 0.06

input: // lookup self-cleavage for A38C C32U
output: 0.13

input: // lookup self-cleavage for C25G G54U
output: 0.25

input: // lookup self-cleavage for A16U C20A
output: 0.69

input: // lookup self-cleavage for C14G G30U
output: 0.14

input: // lookup self-cleavage for A10G G30C
output: 0.07

input: // lookup self-cleavage for A16C A17G
output: 0.9

input: // lookup self-cleavage for C11G C20A
output: 0.4

input: // lookup self-cleavage for A39G G19C
output: 0.31

input: // lookup self-cleavage for A8G G49U
output: 0.06

input: // lookup self-cleavage for G44C G53A
output: 0.81

input: // lookup self-cleavage for G44C G54C
output: 0.92

input: // lookup self-cleavage for C14G C15A
output: 0.06

input: // lookup self-cleavage for C52A G49U
output: 0.1

input: // lookup self-cleavage for C21G G47U
output: 0.03

input: // lookup self-cleavage for C26G G45U
output: 0.02

input: // lookup self-cleavage for C33A G30A
output: 0.02

input: // lookup self-cleavage for A17U U37C
output: 1.06

input: // lookup self-cleavage for A38C G45U
output: 0.1

input: // lookup self-cleavage for A38G A8C
output: 0.07

input: // lookup self-cleavage for A38C C26G
output: 0.08

input: // lookup self-cleavage for C15U C20G
output: 0.05

input: // lookup self-cleavage for C26U G49C
output: 0.06

input: // lookup self-cleavage for A16U G44C
output: 0.91

input: // lookup self-cleavage for G50C U24G
output: 0.02

input: // lookup self-cleavage for C52A U24C
output: 0.18

input: // lookup self-cleavage for C25U C31G
output: 0.31

input: // lookup self-cleavage for C14G G19C
output: 0.04

input: // lookup self-cleavage for C27U G48C
output: 0.05

input: // lookup self-cleavage for G19A G47A
output: 0.08

input: // lookup self-cleavage for G44U G50C
output: 0.83

input: // lookup self-cleavage for C33U G23C
output: 0.04

input: // lookup self-cleavage for C11G U24C
output: 0.04

input: // lookup self-cleavage for A38C U18C
output: 0.99

input: // lookup self-cleavage for C32U G23U
output: 0.12

input: // lookup self-cleavage for A7C G45U
output: 0.02

input: // lookup self-cleavage for A17U C25A
output: 0.14

input: // lookup self-cleavage for A8U C31U
output: 0.06

input: // lookup self-cleavage for A29U C21U
output: 0.15

input: // lookup self-cleavage for A40U C27U
output: 0.1

input: // lookup self-cleavage for A7G G42C
output: 0.08
